- Experimental protocol: chemical genetic growth profiling, strain panel (AID 1159580);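 note: tested at 20 µM; growth read once vehicle control cultures reached saturation at 30 °C; lower values mean less growth of the strain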
- Condition info: S. cerevisiae deletion strains, growth OD, locus YDR502C, strain sam2
Hit rate of the full screen: of about 5,500 compounds, about 2,000 (36%) were called active. Roughly 18% stayed inconclusive and do not appear here. Cut-off read from the data, not from the text of the source: active = normalized growth mostly below about 0.91 (no sharp cut-off); inconclusive = no clear call, values can overlap the other calls; inactive = mostly above about 0.92. The list shows a part of the results.
Possible outcomes: active, inactive

>  <Molecule>
CC(=O)C1CC[C@H]2C3CC[C@H]4C[C@H](O)CC[C@]4(C)C3CC[C@]12C (some centres undefined)

>  <Class>
inactive

$$$$
>  <Molecule>
OC[C@H]1O[C@@H](n2cnc3c(NCc4ccco4)ncnc32)[C@H](O)[C@@H]1O

>  <Class>
inactive

$$$$
>  <Molecule>
NC(N)=NCCCCN=C(N)N

>  <Class>
inactive

$$$$
>  <Molecule>
CCCn1c(=O)c2[nH]c(C3CCCC3)nc2n(CCC)c1=O

>  <Class>
inactive

$$$$
>  <Molecule>
O=C(O)C1CCCNC1 (centres undefined)

>  <Class>
inactive

$$$$
>  <Molecule>
CC(C)c1nc(N(C)S(C)(=O)=O)nc(-c2ccc(F)cc2)c1/C=C/[C@@H](O)C[C@@H](O)CC(=O)O

>  <Class>
inactive

$$$$
>  <Molecule>
CC1[C@H](C)OC(=O)CC(O)CC(O)CC(O)CCC(O)C(O)C[C@]2(O)CC(O)C(C(=O)O)C(CC(OC3O[C@H](C)[C@@H](O)[C@H](N)[C@@H]3O)/C=C/C=C/C=C/C=C/CC/C=C/C=C/[C@H](C)[C@H]1O)O2 (some centres undefined)

>  <Class>
active

$$$$
>  <Molecule>
C[C@]12CCC3C(CC[C@H]4C[C@@H](O)CC[C@]34C)C1CC[C@@H]2O (some centres undefined)

>  <Class>
inactive

$$$$
>  <Molecule>
NC(N)=NCCN1CCCCCCC1

>  <Class>
inactive

$$$$

Data origin, for the record: PubChem BioAssay AID1159580
